target: Protein cereblon/Estrogen receptor (Homo sapiens, UniProt P03372+Q96SW2); experiment: PROTAC activity at CRBN/ERalpha in human MCF7 cells assessed as reduction in ERalpha protein level measured after 12 hrs by Western blot analysis; format: cell-based
Sequence (P03372 whole entry): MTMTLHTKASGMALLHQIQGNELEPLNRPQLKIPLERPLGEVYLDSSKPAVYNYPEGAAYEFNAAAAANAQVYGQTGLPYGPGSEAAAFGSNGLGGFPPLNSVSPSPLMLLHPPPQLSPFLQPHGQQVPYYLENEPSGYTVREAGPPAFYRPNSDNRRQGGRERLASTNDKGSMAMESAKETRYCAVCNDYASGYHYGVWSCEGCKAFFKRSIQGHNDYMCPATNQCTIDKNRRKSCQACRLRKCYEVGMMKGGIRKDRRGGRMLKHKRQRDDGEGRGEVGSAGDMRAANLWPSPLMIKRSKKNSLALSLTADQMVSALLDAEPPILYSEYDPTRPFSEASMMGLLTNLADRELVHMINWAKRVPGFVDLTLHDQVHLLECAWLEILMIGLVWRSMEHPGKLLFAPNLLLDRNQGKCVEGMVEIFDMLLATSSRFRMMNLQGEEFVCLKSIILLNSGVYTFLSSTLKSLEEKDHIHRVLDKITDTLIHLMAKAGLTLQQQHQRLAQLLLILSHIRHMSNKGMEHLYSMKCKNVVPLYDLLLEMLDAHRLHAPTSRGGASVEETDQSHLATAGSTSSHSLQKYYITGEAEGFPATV
Sequence (Q96SW2 whole entry): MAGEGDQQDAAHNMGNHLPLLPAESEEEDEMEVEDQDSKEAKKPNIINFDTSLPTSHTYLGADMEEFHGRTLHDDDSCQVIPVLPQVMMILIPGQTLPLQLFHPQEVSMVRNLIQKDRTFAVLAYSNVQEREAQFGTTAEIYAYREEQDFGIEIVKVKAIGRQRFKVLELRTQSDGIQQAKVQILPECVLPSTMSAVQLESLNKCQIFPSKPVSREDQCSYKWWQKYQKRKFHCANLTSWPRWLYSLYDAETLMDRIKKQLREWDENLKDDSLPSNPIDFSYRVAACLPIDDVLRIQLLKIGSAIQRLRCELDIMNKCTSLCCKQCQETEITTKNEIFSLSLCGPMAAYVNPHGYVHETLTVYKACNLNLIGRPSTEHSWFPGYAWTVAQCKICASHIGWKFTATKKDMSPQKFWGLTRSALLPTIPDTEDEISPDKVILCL
measure: log10 DC50 (log10 of the value in pM)
Reminder: these figures are log10 of reported DC50, in pM before transformation.

// worked examples, log10 DC50 included
Ask: Could you tell me which log10 DC50 is on file for O=C1CC[C@H](N2Cc3c(ccc4c3OCC43CCN(C(=O)CN4CCC5(CC4)CCN(c4ccc([C@@H]6c7ccc(O)cc7CC[C@@H]6c6ccccc6)cc4)CC5)CC3)C2=O)C(=O)N1 ?
Result: 1.54

Ask: Record: O=C1CC[C@H](N2Cc3c(ccc4c3OCC43CCN(CC(=O)N4CCC5(CCN(c6ccc([C@@H]7c8ccc(O)cc8CC[C@@H]7c7ccccc7)cc6)CC5)C4)CC3)C2=O)C(=O)N1
Result: 1.62

Ask: Record: O=C1CC[C@H](N2Cc3c(ccc4c3OCC43CCN(C(=O)CCC4CCN(c5ccc([C@@H]6c7ccc(O)cc7CC[C@@H]6c6ccccc6)cc5)CC4)CC3)C2=O)C(=O)N1
Result: 2.06

Ask: Record: O=C1CC[C@H](N2Cc3c(ccc4c3OCC43CCN(CC(=O)N4CC5(C4)CN(c4ccc([C@@H]6c7ccc(O)cc7CC[C@@H]6c6ccccc6)cc4)C5)CC3)C2=O)C(=O)N1
Result: 1.15

Ask: Record: O=C1CC[C@H](N2Cc3c(ccc4c3OCC43CCN(CC(=O)N4CCC5(CC4)CN(c4ccc([C@@H]6c7ccc(O)cc7CC[C@@H]6c6ccccc6)cc4)C5)CC3)C2=O)C(=O)N1
Result: 2.40

Ask: Record: O=C1CC[C@H](N2Cc3c(ccc4c3OCC43CCN(CCCC4CCN(c5ccc([C@@H]6c7ccc(O)cc7CC[C@@H]6c6ccccc6)cc5)CC4)CC3)C2=O)C(=O)N1
Result: 1.58

Ask: Record: O=C1CC[C@H](N2Cc3c(ccc4c3OCC43CCN(CC4COC5(CCN(c6ccc([C@@H]7c8ccc(O)cc8CC[C@@H]7c7ccccc7)cc6)CC5)OC4)CC3)C2=O)C(=O)N1
Result: 2.22

Ask: Record: O=C1CC[C@H](N2Cc3c(ccc4c3OCC43CCN(CC(=O)N4CCC5(CC4)CCN(c4ccc([C@@H]6c7ccc(O)cc7CC[C@@H]6c6ccccc6)cc4)CC5)CC3)C2=O)C(=O)N1
Result: 1.56

Ask: Record: O=C1CC[C@H](N2Cc3c(ccc4c3OCC43CCN(CC4CC5(CCN(c6ccc([C@@H]7c8ccc(O)cc8CC[C@@H]7c7ccccc7)cc6)CC5)C4)CC3)C2=O)C(=O)N1
Result: 2.17

Ask: Record: O=C1CCC(N2Cc3c(ccc4c3OCC43CCN(CC4COC5(CCN(c6ccc([C@@H]7c8ccc(O)cc8CC[C@@H]7c7ccccc7)cc6)CC5)C4)CC3)C2=O)C(=O)N1 (some centres not stated)
Result: 1.61

List the reported log10 DC50 of each compound below.
1. O=C1CC[C@H](N2Cc3c(ccc4c3OCC43CCN(C(=O)CN4CC5(C4)CN(c4ccc([C@@H]6c7ccc(O)cc7CC[C@@H]6c6ccccc6)cc4)C5)CC3)C2=O)C(=O)N1
2. O=C1CC[C@H](N2Cc3c(ccc4c3OCC43CCN(CC4CC5(CCN(c6ccc([C@@H]7c8ccc(O)cc8CC[C@@H]7c7ccccc7)cc6)CC5)CO4)CC3)C2=O)C(=O)N1 (some centres not stated)

Result:
1. 1.04
2. 2.48

The reported numbers originate from ChEMBL document CHEMBL6083286.
